System: Haemophilus influenzae
Test: Antibacterial activity against Haemophilus influenzae 49247
Assay type: functional
quantity-kind: MIC (µg/mL)

>>> endpoint_result("C=C[C@]12OC(=O)N(CCN(C)Cc3ccc(-c4cccnc4)s3)[C@@H]1[C@@H](C)C(=O)[C@H](C)C[C@@](C)(OC)[C@H](O[C@@H]1O[C@H](C)C[C@H](N(C)C)[C@H]1O)[C@@H](C)C(=O)[C@@H](C)C(=O)O[C@@H]2CC")
6.25
>>> endpoint_result("CC[C@H]1OC(=O)[C@H](C)[C@@H](O[C@H]2C[C@@](C)(OC)[C@@H](O)[C@H](C)O2)[C@H](C)[C@@H](O[C@@H]2O[C@H](C)C[C@H](N(C)C)[C@H]2O)[C@](C)(OC)C[C@@H](C)C(=O)[C@H](C)[C@@H](O)[C@]1(C)O [CLARITHROMYCIN]")
6.25
>>> endpoint_result("C=C[C@]12OC(=O)N(CCCCn3cnc(-c4ccc(NC)nc4)c3)[C@@H]1[C@@H](C)C(=O)[C@H](C)C[C@@](C)(OC)[C@H](O[C@@H]1O[C@H](C)C[C@H](N(C)C)[C@H]1O)[C@@H](C)C(=O)[C@@H](C)C(=O)O[C@@H]2CC")
3.13
>>> endpoint_result("C=C[C@]12OC(=O)N(CCCCn3cnc(-c4cnc(OC)nc4)c3)[C@@H]1[C@@H](C)C(=O)[C@H](C)C[C@@](C)(OC)[C@H](O[C@@H]1O[C@H](C)C[C@H](N(C)C)[C@H]1O)[C@@H](C)C(=O)[C@@H](C)C(=O)O[C@@H]2CC")
6.25
>>> endpoint_result("C=C[C@]12OC(=O)N(CCCCc3cnc(-c4cccnc4)s3)[C@@H]1[C@@H](C)C(=O)[C@H](C)C[C@@](C)(OC)[C@H](O[C@@H]1O[C@H](C)C[C@H](N(C)C)[C@H]1O)[C@@H](C)C(=O)[C@@H](C)C(=O)O[C@@H]2CC")
3.13
>>> endpoint_result("C=C[C@]12OC(=O)N(CCCCn3cnc(-c4cccnc4)c3)[C@@H]1[C@@H](C)C(=O)[C@H](C)C[C@@](C)(OC)[C@H](O[C@@H]1O[C@H](C)C[C@H](N(C)C)[C@H]1O)[C@@H](C)C(=O)[C@@H](C)C(=O)O[C@@H]2CC")
3.13
>>> endpoint_result("C=C[C@]12OC(=O)N(CCCCn3cnc(-c4ccc(F)nc4)c3)[C@@H]1[C@@H](C)C(=O)[C@H](C)C[C@@](C)(OC)[C@H](O[C@@H]1O[C@H](C)C[C@H](N(C)C)[C@H]1O)[C@@H](C)C(=O)[C@@H](C)C(=O)O[C@@H]2CC")
3.13
>>> endpoint_result("C=C[C@]12OC(=O)N(CCCCn3ccc4nc(C(C)=O)ccc43)[C@@H]1[C@@H](C)C(=O)[C@H](C)C[C@@](C)(OC)[C@H](O[C@@H]1O[C@H](C)C[C@H](N(C)C)[C@H]1O)[C@@H](C)C(=O)[C@@H](C)C(=O)O[C@@H]2CC")
3.13

###

System: Streptococcus pneumoniae
Assay: Antibacterial activity against Streptococcus pneumoniae Erm 6849
Type: functional
quantity-kind: MIC (µg/mL)

>>> endpoint_result("C=C[C@]12OC(=O)N(CCCCn3ccc4c(N)cccc43)[C@@H]1[C@@H](C)C(=O)[C@H](C)C[C@@](C)(OC)[C@H](O[C@@H]1O[C@H](C)C[C@H](N(C)C)[C@H]1O)[C@@H](C)C(=O)[C@@H](C)C(=O)O[C@@H]2CC")
3.13
>>> endpoint_result("C=C[C@]12OC(=O)N(CCCCc3ccc(-c4cccnc4)s3)[C@@H]1[C@@H](C)C(=O)[C@H](C)C[C@@](C)(OC)[C@H](O[C@@H]1O[C@H](C)C[C@H](N(C)C)[C@H]1O)[C@@H](C)C(=O)[C@@H](C)C(=O)O[C@@H]2CC")
3.13
>>> endpoint_result("C=C[C@]12OC(=O)N(CCCCn3cnc4cccnc43)[C@@H]1[C@@H](C)C(=O)[C@H](C)C[C@@](C)(OC)[C@H](O[C@@H]1O[C@H](C)C[C@H](N(C)C)[C@H]1O)[C@@H](C)C(=O)[C@@H](C)C(=O)O[C@@H]2CC")
12.5
>>> endpoint_result("C=C[C@]12OC(=O)N(CCCCn3cnc(-c4ccc(OC)nc4)c3C)[C@@H]1[C@@H](C)C(=O)[C@H](C)C[C@@](C)(OC)[C@H](O[C@@H]1O[C@H](C)C[C@H](N(C)C)[C@H]1O)[C@@H](C)C(=O)[C@@H](C)C(=O)O[C@@H]2CC")
0.4
>>> endpoint_result("C=C[C@]12OC(=O)N(CCCCn3cnc(-c4cnc(C)cn4)c3)[C@@H]1[C@@H](C)C(=O)[C@H](C)C[C@@](C)(OC)[C@H](O[C@@H]1O[C@H](C)C[C@H](N(C)C)[C@H]1O)[C@@H](C)C(=O)[C@@H](C)C(=O)O[C@@H]2CC")
0.2
>>> endpoint_result("C=C[C@]12OC(=O)N(CCN(C)Cc3cccc(-c4cccnc4)c3)[C@@H]1[C@@H](C)C(=O)[C@H](C)C[C@@](C)(OC)[C@H](O[C@@H]1O[C@H](C)C[C@H](N(C)C)[C@H]1O)[C@@H](C)C(=O)[C@@H](C)C(=O)O[C@@H]2CC")
0.1
>>> endpoint_result("C=C[C@]12OC(=O)N(CCCCn3cnc(-c4cnc(OC)nc4)c3)[C@@H]1[C@@H](C)C(=O)[C@H](C)C[C@@](C)(OC)[C@H](O[C@@H]1O[C@H](C)C[C@H](N(C)C)[C@H]1O)[C@@H](C)C(=O)[C@@H](C)C(=O)O[C@@H]2CC")
0.4
